# measurement.notes: Inhibition of Yersinia pestis DXS
readout: Ki (µM)
Answers are plain numbers, in µM.

**Q:** # query: Ki of entry CCCCOP(=O)(O)C(C)=O
**A:** 7.5

###

# measurement.notes: Inhibition of Arabidopsis thaliana IspD
Kindly state IC50 for each of the entries shown.
Numbers only, in µM.

{"columns": ["smiles.str", "value.unit", "obs.value"],
 "data": [
  ["N#Cc1cnn2c(O)c(Cc3ccccc3)c(Cl)cc12", "µM", 0.035],
  ["Oc1c(Cc2ccccc2)c(Cl)cc2ncnn12", "µM", 0.14]
]}

**Q:** # query: IC50 of entry COc1ccc2nc(NC(=O)c3cc(-c4ccccc4O)n[nH]3)sc2c1
**A:** 1.8
